- assayedTarget: T1, His-tagged CD47 recombinant protein, CD47-His (human, UniProt Q08722 19-141, limits assumed)
- T1 construct: it is not restated for CD47-His; also called human CD47-His protein; antigen CD47-His; not shown: His tag
- assayOverview: ELISA on coated CD47-His; Ab 0.533 nM
Provide the recorded OD450 nm for the entries that follow.
Answers are plain numbers.

| binder | OD450 nm |
| --- | --- |
| 95E2D10 (antibody, V domains shown, Murine hybridoma antibody purified on protein G) VH: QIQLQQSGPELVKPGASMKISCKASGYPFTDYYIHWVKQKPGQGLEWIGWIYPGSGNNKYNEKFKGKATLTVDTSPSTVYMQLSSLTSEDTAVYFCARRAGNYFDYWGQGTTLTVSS VL: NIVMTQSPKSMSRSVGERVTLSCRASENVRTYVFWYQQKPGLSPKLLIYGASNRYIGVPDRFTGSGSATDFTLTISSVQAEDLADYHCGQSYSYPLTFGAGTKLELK | 2.96 |

Now look at this one.
Recorded OD450 nm (binder 51E2F11 (antibody, V domains shown, Murine hybridoma antibody purified on protein G) VH: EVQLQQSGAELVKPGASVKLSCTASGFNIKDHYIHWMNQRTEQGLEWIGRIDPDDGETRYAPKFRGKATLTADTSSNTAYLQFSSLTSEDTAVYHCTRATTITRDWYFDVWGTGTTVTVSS VL: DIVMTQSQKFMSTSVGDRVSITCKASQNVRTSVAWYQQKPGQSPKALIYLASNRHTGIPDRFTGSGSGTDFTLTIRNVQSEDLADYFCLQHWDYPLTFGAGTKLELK ): 2.95
